molecular target: Retinoic acid receptor alpha (Homo sapiens) (UniProt P10276); test: ATG_DR5_RAR_CIS: Attagene CIS-FACTORIAL HepG2 Assay for human Retinoic Acid Receptor Alpha (RARE), DR5 submotif (AID 2282934); settings: HepG2 Attagene cis-factorial RARE DR5 reporter, mRNA; actives raise or lower the signal
Sequence (P10276 whole entry, looked up): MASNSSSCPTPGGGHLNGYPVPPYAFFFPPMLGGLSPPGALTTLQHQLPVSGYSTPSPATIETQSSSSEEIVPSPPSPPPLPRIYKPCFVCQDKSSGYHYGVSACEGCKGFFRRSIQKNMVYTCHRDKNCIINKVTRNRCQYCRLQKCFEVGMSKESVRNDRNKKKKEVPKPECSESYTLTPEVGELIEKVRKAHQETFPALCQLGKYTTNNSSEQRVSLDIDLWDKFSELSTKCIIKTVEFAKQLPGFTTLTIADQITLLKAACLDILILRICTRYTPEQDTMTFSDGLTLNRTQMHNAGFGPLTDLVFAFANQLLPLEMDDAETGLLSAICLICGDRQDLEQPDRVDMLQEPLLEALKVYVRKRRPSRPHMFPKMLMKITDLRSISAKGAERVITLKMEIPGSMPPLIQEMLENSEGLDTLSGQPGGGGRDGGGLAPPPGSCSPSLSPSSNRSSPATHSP
Activity calls are given as the source filed them. Rule for the calls: active = hit-call score of the fitted dose curve at least 0.9, where 1 is the maximum; inactive = score below 0.9.
measured quantity: outcome

1) CO[Si](CCCOCC1CO1)(OC)OC (stereo not drawn)
inactive
2) CCCCCCCCCCCCC[N+](C)(C)Cc1ccccc1
inactive
3) CCN(CC)c1ccc(N=Nc2ccccc2)cc1
inactive

* * *

assay: ATG_ERE_CIS: Attagene CIS-FACTORIAL HepG2 Assay for Estrogen Response Element (ERE) (AID 2282940); settings: HepG2 ERE cis-reporter, Attagene RNA transcript; actives raise or lower the signal
Active and inactive are the calls of the source. Rule for the calls: active = hit-call score of the fitted dose curve at least 0.9, where 1 is the maximum; inactive = score below 0.9.
measured quantity: AC50

1. O=C(O)C(F)(F)C(F)(F)C(F)(F)C(F)(F)C(F)(F)C(F)(F)C(F)F
64 µM (active)
2. OCC(F)(F)C(F)(F)C(F)(F)C(F)(F)C(F)(F)C(F)(F)C(F)(F)C(F)(F)CO
0.163 µM (active)
3. c1ccc(C[P+](c2ccccc2)(c2ccccc2)c2ccccc2)cc1
inactive
4. C=CC(=O)OCC(F)(F)C(F)(F)C(F)(F)C(F)(F)C(F)(F)C(F)(F)C(F)(F)C(F)F
5.14 µM (active)
5. CC(C)OC=O
inactive
6. CCCCCCCC/C=C\CCCCCCCC(=O)N(C)CC(=O)O
inactive
7. COC(=O)c1ccc(C=O)cc1
inactive

* * *

test: ATG_Sox_CIS: Attagene CIS-FACTORIAL HepG2 Assay for human SRY-box transcription factor (SOX) (AID 2282960); conditions: HepG2 Attagene cis-factorial SOX reporter, mRNA; actives raise or lower the signal
The source made the active and inactive calls. How the source made its calls: active means hit-call score of the fitted dose curve at least 0.9, where 1 is the maximum; inactive means score below 0.9.
Classes used: true (1) (active), false (0) (inactive)

1) Brc1ccccn1
false (0)
2) CC(C)Nc1ccc(NC(C)C)c2c1C(=O)c1ccccc1C2=O
false (0)
3) CC(C)(C)c1cc(CCC(=O)OCC(COC(=O)CCc2cc(C(C)(C)C)c(O)c(C(C)(C)C)c2)(COC(=O)CCc2cc(C(C)(C)C)c(O)c(C(C)(C)C)c2)COC(=O)CCc2cc(C(C)(C)C)c(O)c(C(C)(C)C)c2)cc(C(C)(C)C)c1O
false (0)
4) CN(C)C(C)(C)CO
false (0)
5) CCN=c1cc2oc3cc(NCC)c(C)cc3c(-c3ccccc3C(=O)OCC)c-2cc1C
true (1)
6) FC(F)(F)C(F)(F)C(F)(F)C(F)(F)C(F)(F)C(F)(F)C(F)(F)CCI
false (0)
7) O=C(O)C(F)(F)C(F)(F)C(F)(F)OC(F)(C(F)(F)F)C(F)(F)F
false (0)

* * *

read-out: Interleukin-1 alpha (IL1a), IL1A (gene 3552); experiment: BSK_BE3C_IL1a: BioMAP Diversity Plus: BE3C Assay for Interleukin-1 alpha (IL1a) Biomarker Activity (AID 2283016); settings: primary human bronchial epithelial cells; actives raise or lower the signal
Activity calls are given as the source filed them. The calls were made as follows: active = hit-call score of the fitted dose curve at least 0.9, where 1 is the maximum; inactive = score below 0.9.
Classes used: active, inactive

1) Cc1cc(O)c(C(C)(C)C)cc1C(C)(C)C
active
2) NC(=O)C(F)(F)C(F)(F)C(F)(F)C(F)(F)C(N)=O
inactive
3) C=C(C)C(=O)OCC(F)(F)C(F)(F)C(F)(F)C(F)F
inactive

* * *

test: ATG_PPRE_CIS: Attagene CIS-FACTORIAL HepG2 Assay for human Peroxisome Proliferator-activated Response Element (PPRE) (AID 2282958); conditions: HepG2 PPRE cis-element reporter, Attagene transcription factor profiling; actives raise or lower the signal
The source made the active and inactive calls. The calls were made as follows: active = hit-call score of the fitted dose curve at least 0.9, where 1 is the maximum; inactive = score below 0.9.
Classes used: 1.0 = active, 0.0 = inactive

1. OCC1CCCO1 (stereo not given)
0.0
2. CN(C)C(C)(C)CO
0.0
3. C=CC(=O)OCC(F)(F)C(F)(F)C(F)(F)C(F)(F)C(F)(F)C(F)(F)C(F)(F)C(F)F
0.0
4. O=C(Cl)C(F)(F)C(F)(F)C(F)(F)C(F)(F)C(F)(F)C(F)(F)F
1.0
5. CC(C)OC=O
0.0
6. O=C(O)C(F)(F)C(F)(F)C(F)(F)C(F)(F)C(F)(F)C(F)(F)C(F)F
1.0
7. CCCCCCCC/C=C\CCCCCCCC(=O)OCC(O)CO (stereo not given)
0.0
8. CCC(Cc1c(I)cc(I)c(N)c1I)C(=O)O (stereo not given)
1.0
9. CCc1cc(Cc2cc(CC)c(N)c(CC)c2)cc(CC)c1N
0.0
10. OCC(F)(F)C(F)(F)C(F)(F)C(F)(F)C(F)(F)C(F)(F)C(F)(F)C(F)(F)CO
0.0

* * *

assay: CEETOX_H295R_OHPREG: CeeTox H295R High-throughput Steroidogenesis Assay for OH-Pregnenolone (OHPREG) (AID 2283434); conditions: actives raise or lower the signal
Active and inactive are the calls of the source. Rule for the calls: active = hit-call score of the fitted dose curve at least 0.9, where 1 is the maximum; inactive = score below 0.9.
Classes used: active, inactive

1. OCCC(O)CO (stereo not drawn)
inactive
2. CCCCCCCCCc1ccc(OCCO)cc1
inactive
3. C[C@]12CC[C@H]3C(=CCc4cc(O)ccc43)[C@@H]1CCC2=O
active

* * *

read-out: Tissue Factor, F3 (gene 2152); assay: BSK_LPS_TissueFactor: BioMAP Diversity Plus: LPS Assay for Tissue Factor Biomarker Activity (AID 2283084); conditions: primary human HUVEC with PBMC; actives raise or lower the signal
Calls of active or inactive are those of the source. Rule for the calls: active = hit-call score of the fitted dose curve at least 0.9, where 1 is the maximum; inactive = score below 0.9.
Classes used: label 1 = active, label 0 = inactive

1. O=C(O)C(F)(F)C(F)(F)C(F)(F)OC(F)(F)F
label 0
2. O=C1c2c(O)ccc(Nc3ccc(CCO)cc3)c2C(=O)c2c([N+](=O)[O-])ccc(O)c21
label 1
3. NC(=O)C(F)(F)C(F)(F)C(F)(F)F
label 0
4. O=C(Cl)C(F)(F)C(F)(F)C(F)(F)C(F)(F)C(F)(F)C(F)(F)F
label 0
5. NC(=O)C(F)(F)C(F)(F)C(F)(F)C(F)F
label 0
6. FC(F)(F)C(F)(F)C(F)(F)CC1CO1 (stereo unspecified)
label 0

* * *

target: Bile acid receptor (Homo sapiens) (UniProt Q96RI1); assay: OT_FXR_FXRSRC1_1440: Odyssey Thera (OT) 24-hour HEK293T Protein-Complementation Assay for Farnesoid X receptor/SRC-1 Co-activator (AID 2283384)
Sequence (Q96RI1 whole entry, looked up): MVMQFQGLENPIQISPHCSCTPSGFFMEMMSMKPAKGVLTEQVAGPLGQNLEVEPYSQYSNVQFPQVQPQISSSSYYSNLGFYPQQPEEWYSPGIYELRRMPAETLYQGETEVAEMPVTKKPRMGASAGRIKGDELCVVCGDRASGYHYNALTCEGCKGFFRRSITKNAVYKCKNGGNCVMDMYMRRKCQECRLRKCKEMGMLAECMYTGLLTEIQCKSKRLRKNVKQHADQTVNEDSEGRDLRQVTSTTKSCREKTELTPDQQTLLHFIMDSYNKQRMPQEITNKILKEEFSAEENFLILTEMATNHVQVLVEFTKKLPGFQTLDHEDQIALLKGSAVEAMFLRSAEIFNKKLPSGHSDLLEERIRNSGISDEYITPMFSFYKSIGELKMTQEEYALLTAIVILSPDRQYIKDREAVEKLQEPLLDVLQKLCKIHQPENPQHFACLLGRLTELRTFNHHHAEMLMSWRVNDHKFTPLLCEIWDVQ
Results filed as inconclusive are left out. Activity calls are given as the source filed them. Rule for the calls: active = hit-call score of the fitted dose curve at least 0.9, where 1 is the maximum; inconclusive = response in the unintended direction; inactive = score below 0.9.
measured quantity: outcome

1. N#Cc1ccccc1O
inactive
2. Cc1ccc([N+](=O)[O-])c(C)c1
inactive
3. CCC(Cc1c(I)cc(I)c(N)c1I)C(=O)O (stereo not drawn)
inactive

* * *

Test: ATG_AP_2_CIS: Attagene CIS-FACTORIAL HepG2 Assay for human Activator Protein 2 (AP-2) (AID 2282932)
Conditions: HepG2 AP-2 cis-reporter, Attagene transcription factor profiling; actives raise or lower the signal
Experimental: ATG_CIS is a cell-based, multiplexed-readout assay that uses HepG2, a human liver cell line, with measurements taken at 24 hours after chemical dosing in a 24-well plate.ATG_AP_2_CIS is one of 52 assay component(s) measured or calculated from the ATG_CIS assay. […] This assay endpoint, ATG_AP_2_CIS, was analyzed with bidirectional fitting relative to DMSO as the negative control and baseline of activity. […]
Activity calls are given as the source filed them. Rule for the calls: active = hit-call score of the fitted dose curve at least 0.9, where 1 is the maximum; inactive = score below 0.9.
Classes used: True (active), False (inactive)

1) CC(C)=CCCC(C)O (stereo not drawn)
False
2) CCOCN(C(=O)CS(=O)(=O)O)c1c(C)cccc1CC
False
3) CCCCCCCCCCCCCCCCC
False
4) CCCCOC(=O)C(C)O (stereo not drawn)
False
5) COCCOCCC[Si](C)(O[Si](C)(C)C)O[Si](C)(C)C
True
6) CSc1ccc(O)cc1C
False
7) O=C=NCc1cccc(CN=C=O)c1
False
8) O=S(=O)(O)c1ccc(Cl)cc1
False
9) CO[Si](CCCOCC1CO1)(OC)OC (stereo not drawn)
False
10) C[Si](Cl)(Cl)CCC(F)(F)C(F)(F)C(F)(F)C(F)(F)C(F)(F)C(F)(F)F
False
11) O=C1c2ccccc2C(=O)c2c(Cl)cccc21
False
12) O=C(O)C(F)(F)C(F)(F)C(F)(F)OC(F)(F)F
False
13) Cc1cccc(C)n1
False

* * *

experiment: ATG_RORE_CIS: Attagene CIS-FACTORIAL HepG2 Assay for human RAR-related Orphan Receptor Element (RORE) (AID 2282959); conditions: HepG2 Attagene cis-factorial RORE reporter, mRNA; actives raise or lower the signal
Active and inactive are the calls of the source. How the source made its calls: active means hit-call score of the fitted dose curve at least 0.9, where 1 is the maximum; inactive means score below 0.9.
Classes used: active, inactive

1. FC(F)(F)C(F)(F)C(F)(F)C(F)(F)C(F)(F)C(F)(F)C(F)(F)CCI
inactive
2. O=C(c1ccccc1)c1ccc(Cl)cc1
inactive
3. CCCCCCCCCCCCC[N+](C)(C)Cc1ccccc1
inactive
4. OCCC(O)CO (centres undefined)
inactive
5. O=C(Cl)C(F)(F)C(F)(F)C(F)(F)C(F)(F)C(F)(F)C(F)(F)F
inactive
6. OCC(O)CC(F)(F)C(F)(F)C(F)(F)C(F)(F)C(F)(F)C(F)(F)C(F)(F)C(F)(F)F (centres undefined)
inactive
7. CCCCCCCCn1sc(Cl)c(Cl)c1=O
inactive
8. CCN=C1C=CC(=C(c2ccc(N(CC)CC)cc2)c2ccc(N(CC)CC)cc2)c2ccccc21
active
9. O=S(=O)(OCC(F)(F)F)C(F)(F)C(F)(F)C(F)(F)C(F)(F)F
inactive
